meta.source: the RNAGym collection of RNA variant scans (doi:10.1073/pnas.2313332121)

B1: TPR t1 (parent)
chain: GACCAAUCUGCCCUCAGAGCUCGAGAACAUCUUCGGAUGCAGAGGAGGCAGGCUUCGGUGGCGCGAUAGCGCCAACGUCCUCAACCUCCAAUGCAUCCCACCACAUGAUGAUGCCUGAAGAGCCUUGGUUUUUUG

Variants of: B1
Experiment: polymerase ribozyme fitness, log enrichment relative to wild type (log ratio); higher = more active; in vitro selection for triplet polymerase activity
Returns one of fulfilled or not fulfilled; fulfilled when polymerase ribozyme fitness (log ratio) is >= -2.

- variantSpec: "C53U A105C G120C G122A U129A"
  labelValue: "not fulfilled"
- variantSpec: "A29G U59G"
  labelValue: "fulfilled"
- variantSpec: "A90G C101A C123A"
  labelValue: "fulfilled"
- variantSpec: "A41U U78C A121G U131G"
  labelValue: "fulfilled"
- variantSpec: "C56A G60U"
  labelValue: "fulfilled"
- variantSpec: "A2C A37U U78G G120U"
  labelValue: "fulfilled"
- variantSpec: "A43U C56A C85G"
  labelValue: "not fulfilled"
- variantSpec: "C49U G107A G120C U130G"
  labelValue: "not fulfilled"
- variantSpec: "C13U A18U G42C U87A"
  labelValue: "fulfilled"
